System: Tyrosine-protein kinase ABL1 (Homo sapiens), P00519 [M351T]
Conditions: at 0.1 µM
# maps each entry to its inhibition
The reply should contain only the number, in %.

Field: example entries. Status: answers known.
> print(dat)
                                   compound  property.measured  numeric.value
1  CS(=O)(=O)CCNCc1ccc(-c2ccc3ncnc(Nc4ccc(OCc5cccc(C(F)(F)F)c5)cc4)c3c2)o1         inhibition          -0.21
2  CC1(C)CC(n2cnc(-c3ccc(F)cc3)c2-c2ccnc(N)n2)CC(C)(C)N1         inhibition           2.43
3    c1cnn2ncc(-c3ccnc(NCCCN4CCOCC4)n3)c2c1         inhibition           1.48
4                 Cn1c(-c2nonc2N)nc2cnccc21         inhibition           1.44
5  NS(=O)(=O)c1ccc(N/N=C2\C(=O)Nc3ccc(C(=O)NCc4ccncc4)cc32)cc1         inhibition           1.51
6  CC1=C(C(=O)Nc2ccc3[nH]ncc3c2)C(c2ccc(F)cc2)N=C(c2ccc(C(F)(F)F)nc2)N1 (stereo unspecified)         inhibition           1.43

Please fill in: inhibition reported for CCS(=O)(=O)c1ccc(OC)c(Nc2ncc(-c3cccc(C(C)=O)c3)o2)c1 = 20.5

Value of inhibition reported for the compound NC(=O)c1ccc2c(-c3ccnc(NCCCO)n3)c(-c3ccc(F)cc3)nn2c1 is 3.9

For reference, reported inhibition for O=C(O[C@H]1CN[C@H](C#Cc2cc3ncnc(Nc4ccc5c(cnn5Cc5ccccc5)c4)c3s2)C1)N1CCOCC1 stands at 2.14

Record OCCCNc1nccc(-c2c(-c3ccc(F)cc3)nn3cc(C(F)(F)F)ccc23)n1 . Reported inhibition: 2.71

Recorded inhibition (compound Cc1cc(O)cc(C)c1/C=C/c1cncc(C(N)=O)c1 ): 18.5

Value of inhibition reported for the compound CCCNc1cccc(-n2ncc3c(N/N=C/c4ccncc4)ncnc32)c1 is 36.8

Lab note: measured inhibition of COc1ccc(Nc2ncc(-c3ccccc3)o2)cc1OC was 10.2

Value of measured inhibition for the entry CNC(=O)c1sc(-n2cnc3cc(OC)c(OC)cc32)cc1OCc1ccccc1C(F)(F)F : 0.2

CS(=O)(=O)Nc1ccc(-c2cc(-c3ccccc3)cc(C(N)=O)c2N)cc1 yielded inhibition of 0.69

inhibition in this record for NS(=O)(=O)c1cccc(N/C=C2\C(=O)Nc3ccccc32)c1 : 3.89

====

Biological target: Receptor-type tyrosine-protein kinase FLT3 (Homo sapiens);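 further: mean inhibition value from the GSK PKIS kinase screening set, with the assay run by Nanosyn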
Settings: at 0.1 µM
PROPERTY_MEASURED: inhibition (%)
Please reply with the bare figure in % and do not write the unit itself.

> print(dat)
                                   molecule                               target.desc  endpoint.unit  numeric.value
1  OCCCNc1nccc(-c2c(-c3ccc(F)cc3)nn3cc(C(F)(F)F)ccc23)n1  Receptor-type tyrosine-protein kinase FLT3 (Homo sapiens)              %           1.66
2  COc1cc(N2CCN(C(C)C)CC2)ccc1Nc1nc(Nc2cccc(F)c2C(=O)O)c2cc[nH]c2n1  Receptor-type tyrosine-protein kinase FLT3 (Homo sapiens)              %            0.4
3  CS(=O)(=O)CCNCc1ccc(-c2ccc3ncnc(Nc4ccc(OCc5ccccc5)cc4)c3c2)o1  Receptor-type tyrosine-protein kinase FLT3 (Homo sapiens)              %           2.34

Entry c1cnn2ncc(-c3ccnc(NCCCN4CCOCC4)n3)c2c1 ; inhibition = 0.76

The reported inhibition of the molecule CC1=C(C(=O)Nc2ccc3[nH]ncc3c2)C(c2ccc(F)cc2)N=C(c2ccc(C(F)(F)F)nc2)N1 (stereo not given) was -0.83

molecule COc1c(C(N)=O)cc(-c2ccc(Cl)cc2)cc1-c1ccc(S(N)(=O)=O)cc1 , inhibition observed: 1.63

So, COC(=O)Nc1nc2ccc(Oc3ccc(NC(=O)Nc4cc(C(F)(F)F)ccc4F)cc3)cc2s1 ? Its inhibition was 11.2

Record CC1(C)CC(n2cnc(-c3ccc(F)cc3)c2-c2ccnc(N)n2)CC(C)(C)N1 . Reported inhibition: 0.9

Memo: COc1ccc2ncn(-c3cc(O[C@H](C)c4ccccc4C(F)(F)F)c(C(N)=O)s3)c2c1 , reported inhibition: -1.48

Value of inhibition reported for the molecule COc1ccc(Nc2ncc(-c3ccccc3)o2)cc1OC is 76.6

Lab note: NS(=O)(=O)c1ccc(N/N=C2\C(=O)Nc3cccc(CCc4ccncc4)c32)cc1 gave inhibition of 64.3

The molecule CS(=O)(=O)CCNCc1ccc(-c2ccc3ncnc(Nc4ccc(OCc5cccc(C(F)(F)F)c5)cc4)c3c2)o1 showed inhibition equal to 10.4

Cn1c(-c2nonc2N)nc2cnccc21 yielded inhibition of 4.49

Documented inhibition of COc1cccc(-n2ncc3c(N/N=C/c4ccc(C(=O)NCCN(C)C)cc4)ncnc32)c1 : 14

Field inhibition (entry COc1ccc(-c2nn3ncccc3c2-c2ccnc(Nc3ccc(F)c(F)c3)n2)cc1 ) reads 2.32

Data point: CCS(=O)(=O)c1ccc(OC)c(Nc2ncc(-c3cccc(F)c3)o2)c1 ; inhibition = 23.3

Briefly, inhibition measured for CN1CCC(n2cnc(-c3ccc(F)cc3)c2-c2ccnc(NCCO)n2)CC1 : 1.5

Briefly, inhibition measured for O=C(O[C@H]1CN[C@H](C#Cc2cc3ncnc(Nc4ccc5c(cnn5Cc5ccccc5)c4)c3s2)C1)N1CCOCC1 : -2.76

Given item NS(=O)(=O)c1cccc(N/C=C2\C(=O)Nc3ccccc32)c1 , the value recorded as its inhibition is 5.75

GET /value?item= Cc1cc(O)cc(C)c1/C=C/c1cncc(C(=O)OC(C)(C)C)c1 &field=inhibition returns 2.32

====

Molecular target: Ribosomal protein S6 kinase alpha-2 (Homo sapiens) (UniProt Q15349);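 further: reported value is the mean percent inhibition of RSK3, from the GSK PKIS screening panel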
Sequence (Q15349 whole entry): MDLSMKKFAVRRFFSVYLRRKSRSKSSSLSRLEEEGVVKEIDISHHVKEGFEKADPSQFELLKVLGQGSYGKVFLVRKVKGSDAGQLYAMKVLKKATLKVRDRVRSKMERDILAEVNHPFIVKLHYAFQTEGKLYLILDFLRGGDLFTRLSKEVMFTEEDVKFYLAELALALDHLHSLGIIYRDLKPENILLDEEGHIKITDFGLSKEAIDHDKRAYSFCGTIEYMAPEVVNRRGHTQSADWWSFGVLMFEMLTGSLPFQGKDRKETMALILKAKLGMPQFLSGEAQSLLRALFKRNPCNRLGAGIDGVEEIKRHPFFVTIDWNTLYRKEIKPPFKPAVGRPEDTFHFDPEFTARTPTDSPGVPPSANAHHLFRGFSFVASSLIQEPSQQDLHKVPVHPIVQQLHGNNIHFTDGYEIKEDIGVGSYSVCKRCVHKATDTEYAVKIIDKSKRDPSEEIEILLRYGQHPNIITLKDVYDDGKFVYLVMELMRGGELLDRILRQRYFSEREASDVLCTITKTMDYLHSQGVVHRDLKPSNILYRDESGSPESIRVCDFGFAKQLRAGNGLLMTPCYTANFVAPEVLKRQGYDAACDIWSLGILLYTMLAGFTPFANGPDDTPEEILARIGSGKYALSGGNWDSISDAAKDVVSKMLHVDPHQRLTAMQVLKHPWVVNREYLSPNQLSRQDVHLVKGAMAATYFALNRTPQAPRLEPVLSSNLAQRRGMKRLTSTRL
Conditions: at 0.1 µM
PROPERTY_MEASURED: inhibition (%)
Note: unit % is implicit; provide only the numeric part.

Recorded results for 8 compounds are shown here.
> print(dat)
                                   compound  property.measured  numeric.value
1      Cc1cc(O)cc(C)c1/C=C/c1cncc(C(N)=O)c1         inhibition            1.1
2  CCOc1ccc2c(-c3ccnc(Nc4cc(OC)cc(C(F)(F)F)c4)n3)cnn2n1         inhibition           0.44
3  O=C(O[C@H]1CN[C@H](C#Cc2cc3ncnc(Nc4ccc5c(ccn5Cc5cc(F)ccc5F)c4)c3s2)C1)N1CCOCC1         inhibition           3.56
4  Cc1nnc(-c2cccc(-c3ccc(C(=O)NCC4CC4)cc3)c2)o1         inhibition           3.01
5    O=C(Nc1n[nH]c2nnc(-c3cccnc3)cc12)C1CC1         inhibition           0.73
6  CC1(C)CC(n2cnc(-c3ccc(F)cc3)c2-c2ccnc(N)n2)CC(C)(C)N1         inhibition           1.16
7        FC(F)(F)CNc1nccc(-c2cnn3ncccc23)n1         inhibition           0.89
8  CC1=C(C(=O)Nc2ccc3[nH]nc(C)c3c2)C(c2ccc(C(F)(F)F)cc2)CC(=O)N1 (stereo not given)         inhibition           1.77

Recorded inhibition for CS(=O)(=O)Nc1ccc(-c2cc(-c3ccccc3)cc(C(N)=O)c2N)cc1 on Ribosomal protein S6 kinase alpha-2 (Homo sapiens) (UniProt Q15349) was -1.55

inhibition for Ribosomal protein S6 kinase alpha-2 (Homo sapiens) (UniProt Q15349) with input Cc1cc(O)cc(C)c1/C=C/c1cncc(C(=O)OC(C)(C)C)c1 equals 1.57

====

Molecular target: ALK tyrosine kinase receptor (Homo sapiens);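 further: values are mean percent inhibition of ALK, screened as part of the GSK PKIS panel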
Details: at 1 µM
Short version: inhibition at least 4% is Fulfilled, less is Not fulfilled.

Worked examples follow.
> print(dat)
                               given.smiles  assigned.label
1    O=C(Nc1n[nH]c2nnc(-c3cccnc3)cc12)C1CC1   Not fulfilled
2    CCn1c(-c2nonc2N)nc2cncc(C(=O)NCCNC)c21       Fulfilled
3  COc1cc(N2CCN(C(C)C)CC2)ccc1Nc1nc(Nc2cccc(F)c2C(=O)O)c2cc[nH]c2n1       Fulfilled
4  COC(=O)Nc1nc2ccc(Oc3ccc(NC(=O)Nc4cc(C(F)(F)F)ccc4F)cc3)cc2s1       Fulfilled
5    c1cnn2ncc(-c3ccnc(NCCCN4CCOCC4)n3)c2c1   Not fulfilled

Okay, now this molecule:
I'd appreciate it if you could say whether CNC(=O)c1sc(-n2cnc3cc(OC)c(OC)cc32)cc1OCc1ccccc1C(F)(F)F has inhibition at least equal to 4%.
Fulfilled

Source listed as ChEMBL document CHEMBL1961873.
